test: Drug level in Sprague-Dawley rat liver at 5 mg/kg, po after 4 hrs; format: ADME, organism-based; parameters: dose 5 mg/kg, route oral; details: read-out: Drug uptake
metric-name: concentration at 4 h (µM)

{"compound-smiles": "C=C[C@@H]1C[C@]1(NC(=O)[C@@H]1C[C@@H]2CN1C(=O)[C@H](C(C)(C)C)NC(=O)OCCCCCc1cc(Br)c3ccnc(c3c1)O2)C(=O)NS(=O)(=O)C1CC1", "qualifier-sign": "=", "assay-value": 5.8}
{"compound-smiles": "C=C[C@@H]1C[C@]1(NC(=O)[C@@H]1C[C@@H]2CN1C(=O)[C@H](C1CCOCC1)NC(=O)OCCC/C=C/c1ccc3ccnc(c3c1)O2)C(=O)NS(=O)(=O)C1CC1", "qualifier-sign": "<", "assay-value": 0.2}
{"compound-smiles": "C=C[C@@H]1C[C@]1(NC(=O)[C@@H]1C[C@@H]2CN1C(=O)[C@H](C1Cc3ccccc3C1)NC(=O)OCCC/C=C/c1ccc3ccnc(c3c1)O2)C(=O)NS(=O)(=O)C1CC1", "qualifier-sign": "=", "assay-value": 4.5}
{"compound-smiles": "C=C[C@@H]1C[C@]1(NC(=O)[C@@H]1C[C@@H]2CN1C(=O)[C@H](C(C)(C)C)NC(=O)OCCCCCc1cc(I)c3ccnc(c3c1)O2)C(=O)NS(=O)(=O)C1CC1", "qualifier-sign": "=", "assay-value": 24.5}
{"compound-smiles": "C=C[C@@H]1C[C@]1(NC(=O)[C@@H]1C[C@@H]2CN1C(=O)[C@H](C1CCCCC1)NC(=O)OCCC/C=C/c1ccc3ccnc(c3c1)O2)C(=O)NS(=O)(=O)C1CC1", "qualifier-sign": "=", "assay-value": 46.9}

---

test: AUC in Sprague-Dawley rat at 5 mg/kg, po; assay type: ADME, organism-based; parameters: dose 5 mg/kg, route oral; settings: plasma

{"compound-smiles": "C=C[C@@H]1C[C@]1(NC(=O)[C@@H]1C[C@@H]2CN1C(=O)[C@H](C1CCCCC1)NC(=O)OCC(C)(C)CCCc1cc3c(nccc3cc1OC)O2)C(=O)NS(=O)(=O)C1CC1", "AUC (µM·h)": 12.1}

---

test: Drug level in Beagle dog liver at 5 mg/kg, po after 2 hrs; type: ADME, organism-based, Canis lupus familiaris; set-up: dose 5 mg/kg, route oral; details: read-out: Drug uptake

{"compound-smiles": "C=C[C@@H]1C[C@]1(NC(=O)[C@@H]1C[C@@H]2CN1C(=O)[C@H](C1CCCCC1)NC(=O)OCC(C)(C)CCCc1cc3c(nccc3cc1OC)O2)C(=O)NS(=O)(=O)C1CC1", "concentration at 2 h, µM": 54}

---

test: Drug level in Sprague-Dawley rat liver at 5 mg/kg, po after 24 hrs; assay type: ADME, organism-based; set-up: dose 5 mg/kg, route oral; conditions: read-out: Drug uptake
metric-name: concentration at 24 h (µM)

{"compound-smiles": "C=C[C@@H]1C[C@]1(NC(=O)[C@@H]1C[C@@H]2CN1C(=O)[C@H](C1CCCCC1)NC(=O)OCC(C)(C)CCCc1cc3c(nccc3cc1OC)O2)C(=O)NS(=O)(=O)C1CC1", "metric-name": "concentration at 24 h", "assay-value": 9.9}

---

assay: Drug level in Sprague-Dawley rat liver at 5 mg/kg, po after 4 hrs; type: ADME, organism-based; set-up: dose 5 mg/kg, route oral; conditions: read-out: Drug uptake

{"compound-smiles": "C=C[C@@H]1C[C@]1(NC(=O)[C@@H]1C[C@@H]2CN1C(=O)[C@H](C1CCCC1)NC(=O)OCCCCCc1cc3c(nccc3cc1OC)O2)C(=O)NS(=O)(=O)C1CC1", "measurement-units": "µM", "concentration at 4 h": 8}
{"compound-smiles": "C=C[C@@H]1C[C@]1(NC(=O)[C@@H]1C[C@@H]2CN1C(=O)[C@H](C(C)(C)C)NC(=O)OCCCCCc1cc(SC)c3ccnc(c3c1)O2)C(=O)NS(=O)(=O)C1CC1", "measurement-units": "µM", "concentration at 4 h": 12.6}
{"compound-smiles": "C=C[C@@H]1C[C@]1(NC(=O)[C@@H]1C[C@@H]2CN1C(=O)[C@H](C1CCCC1)NC(=O)OCC(C)(C)CCCc1ccc3ccnc(c3c1)O2)C(=O)NS(=O)(=O)C1CC1", "measurement-units": "µM", "concentration at 4 h": 16}
